# ASSAY_INFO: thallium influx changes without GIRK channels – cell-based, HEK-293 rmGlu8, no GIRK, thallium flux, counter-screen for GIRK activator project, confirmation (AID 623868);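 note: extra codes mark interference with 3 for fluorescent and 4 for baseline rise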
# CONDITION_DETAILS: thallium flux fluorescence, at 10 µM, actives lie on both sides, codes: 1 enhancer, -1 blocker, 0 none, thallium stimulus containing EC20 glutamate
The whole screen tested about 2,100 compounds, of which about 760 (36%) were called active. A selection follows.
QUANTITY: manual score
Answer with the value's number alone.

1. CC(Oc1ccc(Cl)cc1)C(=O)N/N=C/c1ccsc1 (configuration not stated) = 0

Enquiry: Name the recorded manual score of the item "S=C(N/N=C/c1ccccc1)N1CCOCC1" in your answer.
Return: 1

Enquiry: Name the recorded manual score of the item COC(=O)c1ccc(N2C(=O)CC(Sc3n[nH]c(C)n3)C2=O)cc1 (configuration not stated) in your answer.
Return: 0

Enquiry: Name the recorded manual score of the item "Cc1ccc(C(=O)c2ccc(N3CCOCC3)c(F)c2)cc1" in your answer.
Return: 0

Enquiry: Name the recorded manual score of the item CCOC(=O)C(CC)Sc1nnc(COc2ccc(C)cc2)n1-c1ccccc1 (configuration not stated) in your answer.
Return: 3

Enquiry: Name the recorded manual score of the item "CC(C)n1c(NCc2c[nH]c3ccccc23)nc2ccccc21" in your answer.
Return: 0

Enquiry: Name the recorded manual score of the item "COC(=O)c1ccc(C)c(NC(=O)CN2C(=O)c3ccccc3S2(=O)=O)c1" in your answer.
Return: 0
